Each entry below carries its reported protein stability index.
B1: C9orf25 (parent)
chain: LARKGSLKNGSMGSPVNQQPKKNN

Variants of: B1
Assay: protein stability index of a GFP-peptide fusion (GPS, HEK-293T) (PSI 1-6); higher = more stable;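 also: lentivirally expressed fusions sorted by FACS into six bins by GFP to DsRed ratio, PSI derived from sequencing read proportions per bin multiplied by bin number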
Settings: c terminus: a fixed tail appended
Number only, no unit.

Given the entry S6T , report its measured protein stability index.
4.76

Given the entry S6K , report its measured protein stability index.
4.37
